tested on: HT-29; assay: Induction of apoptosis in human HT-29 cells assessed as early apoptotic cells at 1.25 uM after 24 hrs by PE annexin V and 7-Aminoactinomycin D staining-based flow cytometry (reference value: 1.37%); assay type: functional
Listed here: items and their measured Activity.
Express it in %; write the number only.

{"cpdSmiles": "O=C1C(=O)N(Cc2ccc(CN=C=S)cc2)c2c(Br)cc(Br)cc21", "Activity, %": 3.5}

Data request, read-out Activity, for N#C[Se]CCCN1C(=O)C(=O)c2cc(Br)cc(Br)c21
1.94

Lookup O=C1C(=O)N(CCCN=C=S)c2c(Br)cc(Br)cc21
2.83

Lookup N#CSCc1ccc(CN2C(=O)C(=O)c3cc(Br)cc(Br)c32)cc1
4.42

----------
test system: HT-29; experiment: Induction of apoptosis in human HT-29 cells assessed as late apoptosis or necrotic cells at 2.5 uM after 24 hrs by PE annexin V and 7-Aminoactinomycin D staining-based flow cytometry (reference value: 4.1%); assay type: functional
Listed here: items and their measured Activity.
Express it in %; write the number only.

Record excerpt, results attached:
{"cpdSmiles": "N#CSCc1ccc(CN2C(=O)C(=O)c3cc(Br)cc(Br)c32)cc1", "Activity, %": 21.1}
{"cpdSmiles": "N#C[Se]CCCN1C(=O)C(=O)c2cc(Br)cc(Br)c21", "Activity, %": 6.27}
{"cpdSmiles": "O=C1C(=O)N(Cc2ccc(CN=C=S)cc2)c2c(Br)cc(Br)cc21", "Activity, %": 23.3}

Consider the record given below.
What is its Activity for HT-29? Entry: O=C1C(=O)N(CCCN=C=S)c2c(Br)cc(Br)cc21
11.4
